Source: patent US20060025566A1

Attribute: pKi
target: human growth hormone secretagogue receptor (hGHS-R1a) (Homo sapiens); construct: purchased PerkinElmer BioSignal #RBHGHSM, lot#1887; host or cells: HEK-293, stably transfected (membranes); assay: Competitive radioligand binding assay (ghrelin receptor), [125I]-ghrelin displacement on GHS-R/HEK 293 membranes; details: binding activity at the human ghrelin receptor, [125I]-ghrelin competition, GHS-R/HEK 293 membranes; read-out: Ki
pKi: −log10 of the molar value.
Endpoint label: pKi

Molecule: CCC(C)C1NCCOc2ccccc2CCCNC(=O)C(Cc2ccccc2)NC(=O)C(C(C)CC)N(C)C1=O (centres unmarked) [150a]
Assayed target: human growth hormone secretagogue receptor (hGHS-R1a) (Homo sapiens)
Reported measurement: 6.00 to 7.00

Molecule: C[C@@H]1C(=O)N[C@H](Cc2ccccc2)C(=O)NCCCc2ccccc2OCCN[C@@H](C2CC2)C(=O)N1C [compound 17]
Assayed target: human growth hormone secretagogue receptor (hGHS-R1a) (Homo sapiens)
Reported measurement: 8.00 to 10.00

Molecule: CC[C@H](C)[C@@H]1NCCOc2ccccc2CCCNC(=O)[C@@H](Cc2ccccc2)NC(=O)[C@@H](CO)NC1=O [compound 151]
Assayed target: human growth hormone secretagogue receptor (hGHS-R1a) (Homo sapiens)
Reported measurement: < 6.00

Molecule: O=C1NC2(CCCC2)C(=O)N[C@@H](Cc2ccccc2)C(=O)NCCCc2ccccc2OCCN[C@H]1CO [compound 105]
Assayed target: human growth hormone secretagogue receptor (hGHS-R1a) (Homo sapiens)
Reported measurement: 6.00 to 7.00

Molecule: CC(C)C[C@@H]1NCCOc2ccccc2CCCNC(=O)[C@@H](Cc2ccccc2)NC(=O)C2(CCCC2)NC1=O [compound 97]
Assayed target: human growth hormone secretagogue receptor (hGHS-R1a) (Homo sapiens)
Reported measurement: 6.00 to 7.00

Molecule: CCC[C@@H]1NCCOc2ccccc2CCCNC(=O)[C@@H](Cc2ccccc2)NC(=O)[C@H](Cc2ccccc2)NC1=O [compound 64]
Assayed target: human growth hormone secretagogue receptor (hGHS-R1a) (Homo sapiens)
Reported measurement: < 5.00

Molecule: CCC(C)C1NCCOc2ccccc2CCCNC(=O)C(Cc2ccccc2)NC(=O)C(C(C)CC)N(C)C1=O (centres unmarked) [compound 149]
Assayed target: human growth hormone secretagogue receptor (hGHS-R1a) (Homo sapiens)
Reported measurement: 5.00 to 6.00

Molecule: O=C1NC2(CCCC2)C(=O)NC(Cc2ccccc2)C(=O)NCC=Cc2ccccc2OCCNC1Cc1cccc2ccccc12 (centres unmarked) [compound 130]
Assayed target: human growth hormone secretagogue receptor (hGHS-R1a) (Homo sapiens)
Reported measurement: 5.00 to 6.00

Molecule: CC(C)C[C@@H]1NCCOc2ccccc2CCCNC(=O)[C@H](CCc2ccccc2)NC(=O)C2(CCCC2)NC1=O [compound 90]
Assayed target: human growth hormone secretagogue receptor (hGHS-R1a) (Homo sapiens)
Reported measurement: 5.00 to 6.00

Molecule: CN1CC(=O)N[C@H](Cc2ccccc2)C(=O)NCCCc2ccccc2OCCN[C@@H](CO)C1=O [compound 76]
Assayed target: human growth hormone secretagogue receptor (hGHS-R1a) (Homo sapiens)
Reported measurement: < 5.00

Molecule: NCCCC[C@@H]1NCCOc2ccccc2CCCNC(=O)[C@H](Cc2ccccc2)NC(=O)C2(CCCC2)NC1=O [compound 103]
Assayed target: human growth hormone secretagogue receptor (hGHS-R1a) (Homo sapiens)
Reported measurement: < 5.00

Molecule: O=C1NC2(CCCC2)C(=O)NC(Cc2ccccc2)C(=O)NCC=Cc2ccccc2OCCNC1Cc1cccs1 (stereo in doubt) [compound 135]
Assayed target: human growth hormone secretagogue receptor (hGHS-R1a) (Homo sapiens)
Reported measurement: 6.00 to 7.00

Molecule: CCC[C@@H]1NCCOc2ccccc2CCCNC(=O)[C@@H](Cc2ccccc2)NC(=O)CNC1=O [compound 61]
Assayed target: human growth hormone secretagogue receptor (hGHS-R1a) (Homo sapiens)
Reported measurement: 6.00 to 7.00

Molecule: CC(C)C[C@@H]1NCCOc2ccccc2CCCNC(=O)[C@H](CCC(=O)O)NC(=O)C2(CCCC2)NC1=O [compound 92]
Assayed target: human growth hormone secretagogue receptor (hGHS-R1a) (Homo sapiens)
Reported measurement: < 5.00

---

biological target: motilin receptor (Homo sapiens, UniProt O43193); assay: Selectivity for the ghrelin receptor versus the motilin receptor; format: binding
Sequence (O43193 whole entry): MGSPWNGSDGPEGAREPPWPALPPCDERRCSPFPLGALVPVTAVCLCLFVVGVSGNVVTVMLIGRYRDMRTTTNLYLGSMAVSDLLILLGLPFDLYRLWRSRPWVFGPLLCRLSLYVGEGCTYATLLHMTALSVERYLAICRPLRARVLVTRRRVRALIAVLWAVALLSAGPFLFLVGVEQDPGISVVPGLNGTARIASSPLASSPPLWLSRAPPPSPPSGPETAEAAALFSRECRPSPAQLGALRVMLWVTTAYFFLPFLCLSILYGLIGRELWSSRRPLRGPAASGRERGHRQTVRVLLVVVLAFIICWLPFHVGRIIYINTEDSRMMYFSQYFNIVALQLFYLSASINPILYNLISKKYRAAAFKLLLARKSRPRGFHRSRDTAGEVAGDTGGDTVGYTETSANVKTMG
Here the recorded Selectivity is given for each entry.

Molecule: CC1C(=O)NC(Cc2ccc(F)cc2)C(=O)NCCCc2cc(NS(C)(=O)=O)ccc2OCCNC(C2CC2)C(=O)N1C (centres unmarked)
Selectivity: 250/1

Molecule: CC1C(=O)NC(Cc2ccc(F)cc2)C(=O)NCC2CC2c2ccccc2OCCNC(C2CC2)C(=O)N1C (single isomer, unassigned) [389a]
Selectivity: 450/1

Molecule: CCC(C)C1NCCOc2ccccc2CCCNC(=O)C(CC(C)C)NC(=O)C(C)N(C)C1=O (centres unmarked)
Selectivity: 105/1

Molecule: CCC(C)C1NCCOc2cccnc2CCCNC(=O)C(Cc2ccccc2)NC(=O)C(C)N(C)C1=O (centres unmarked)
Selectivity: >100/1

Molecule: C[C@@H]1C(=O)N[C@H](Cc2ccc(O)c(C(C)(C)C)c2)C(=O)NCCCc2ccccc2OCCN[C@@H](C2CC2)C(=O)N1C
Selectivity: 21/1

---

biological target: human growth hormone secretagogue receptor (hGHS-R1a) (Homo sapiens, UniProt Q92847); construct: purchased PerkinElmer BioSignal #RBHGHSM, lot#1887; host or cells: HEK-293, stably transfected (membranes); assay: Competitive radioligand binding assay (ghrelin receptor), [125I]-ghrelin displacement on GHS-R/HEK 293 membranes; conditions: binding activity, standard method; TFA salts unless otherwise noted; read-out: Ki
Sequence (Q92847 whole entry): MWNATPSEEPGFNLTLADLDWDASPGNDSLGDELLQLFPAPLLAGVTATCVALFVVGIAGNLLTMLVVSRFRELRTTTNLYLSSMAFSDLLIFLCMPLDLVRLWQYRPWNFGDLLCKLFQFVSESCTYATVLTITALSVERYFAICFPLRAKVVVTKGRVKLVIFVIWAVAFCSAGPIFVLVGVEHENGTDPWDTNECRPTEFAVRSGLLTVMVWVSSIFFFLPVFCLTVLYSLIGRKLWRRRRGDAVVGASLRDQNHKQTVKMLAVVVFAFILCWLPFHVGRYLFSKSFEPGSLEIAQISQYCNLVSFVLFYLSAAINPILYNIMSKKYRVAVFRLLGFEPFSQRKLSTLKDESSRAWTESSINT

Molecule: CC(C)[C@@H]1NCCOc2ccccc2CCCNC(=O)[C@@H](Cc2ccccc2)NC(=O)CN(C)C1=O [Compound 3]
Ki: 100 to 1000 nM
--
Molecule: CC1C(=O)NC(Cc2ccc(Cl)cc2)C(=O)NCCCc2ccccc2OCCNC(C2CC2)C(=O)N1C (stereo not shown) [compound 299]
Ki: 0.1 to 10 nM
--
Molecule: CC(C)C[C@@H]1NCCOc2ccccc2/C=C/CNC(=O)C2(CCCC2)NC(=O)C2(CCCC2)NC1=O [compound 168]
Ki: 100 to 1000 nM
--
Molecule: CCC(C)C1NCCOc2ccccc2CCCNC(=O)C(Cc2ccccc2)NC(=O)C(C)N(CC)C1=O (stereo not shown) [compound 43]
Ki: 10 to 100 nM
--
Molecule: CC[C@H](C)[C@@H]1NCCOc2ccccc2CCCNC(=O)[C@@H](Cc2ccccc2)NC(=O)[C@@H](C)NC1=O [compound 2]
Ki: 100 to 1000 nM
--
Molecule: CC1C(=O)NC(Cc2ccc(Cl)cc2Cl)C(=O)NCCCc2ccccc2OCCNC(C2CC2)C(=O)N1C (stereo not shown) [compound 314]
Ki: 0.1 to 10 nM
--
Molecule: CC[C@H](C)[C@@H]1NCCOc2ccccc2CCCNC(=O)[C@@H](Cc2ccc(F)cc2)NC(=O)[C@@H](C)N(C)C1=O [compound 26]
Ki: 0.1 to 10 nM

---

target: human growth hormone secretagogue receptor (hGHS-R1a) (Homo sapiens, UniProt Q92847); construct: purchased PerkinElmer BioSignal #RBHGHSM, lot#1887; host or cells: HEK-293, stably transfected (membranes); test: Competitive radioligand binding assay (ghrelin receptor), [125I]-ghrelin displacement on GHS-R/HEK 293 membranes; conditions: binding activity at the human ghrelin receptor, [125I]-ghrelin competition, GHS-R/HEK 293 membranes; read-out: Ki
pKi: −log10 of the molar value.
pKi values by entry
Endpoint label: pKi

Compound: CC(C)CC1NCCOc2ccccc2CCCNC(=O)C(Cc2ccccc2)NC(=O)C2(CCCC2)NC1=O (centres unmarked) [compound 96]
Endpoint label: pKi
Reported measurement: < 5.00
--
Compound: CCC(C)C1NCCOc2ccccc2CCCNC(=O)C(Cc2ccccc2)NC(=O)C(C(C)C)N(C)C1=O (single isomer, unassigned) [145a]
Endpoint label: pKi
Reported measurement: 6.00 to 7.00
--
Compound: CC[C@H](C)[C@@H]1NCCOc2ccccc2CCCNC(=O)[C@@H](Cc2ccc3ccccc3c2)NC(=O)[C@@H](C)N(C)C1=O [compound 31]
Endpoint label: pKi
Reported measurement: 8.00 to 10.00
--
Compound: CC(C)CC1NCCOc2ccccc2C=CCNC(=O)C(Cc2cccc(Cl)c2)NC(=O)C2(CCCC2)NC1=O (centres unmarked) [compound 21]
Endpoint label: pKi
Reported measurement: 8.00 to 10.00
--
Compound: CCCC1NCCC=CCCNC(=O)C(Cc2ccccc2)NC(=O)CN(C)C1=O (centres unmarked) [compound 83]
Endpoint label: pKi
Reported measurement: < 5.00
--
Compound: CCC[C@@H]1NC(=O)[C@@H](C(C)C)NCCOc2ccccc2C=CCNC(=O)[C@H](Cc2ccccc2)NC1=O (stereo in doubt) [compound 13]
Endpoint label: pKi
Reported measurement: 6.00 to 7.00
--
Compound: CO[C@H](C)[C@@H]1NCCOc2ccccc2CCCNC(=O)[C@@H](Cc2ccccc2)NC(=O)[C@@H](C)N(C)C1=O [compound 120]
Endpoint label: pKi
Reported measurement: 7.00 to 8.00
--
Compound: CC(C)CC1NCCOc2ccccc2CCCNC(=O)C(CCCCN)NC(=O)C2(CCCC2)NC1=O (centres unmarked) [compound 91]
Endpoint label: pKi
Reported measurement: < 5.00
--
Compound: CCCC1NCc2cccc(c2)CCNC(=O)C(Cc2ccccc2)NC(=O)CN(C)C1=O (centres unmarked) [compound 85]
Endpoint label: pKi
Reported measurement: < 5.00
--
Compound: CC(C)C[C@@H]1NCCOc2ccccc2CCCNC(=O)[C@H](Cc2ccccc2)NC(=O)C2(CC2)NC1=O [compound 111]
Endpoint label: pKi
Reported measurement: 6.00 to 7.00
--
Compound: CC(C)C[C@@H]1NCCOc2ccccc2C=CCNC(=O)[C@H](CCC(=O)O)NC(=O)C2(CCCC2)NC1=O (stereo in doubt) [compound 45]
Endpoint label: pKi
Reported measurement: < 5.00
--
Compound: O=C1NC2(CCCC2)C(=O)N[C@@H](Cc2ccccc2)C(=O)NCC=Cc2ccccc2OCCN[C@H]1CCc1ccccc1 (stereo in doubt) [compound 126]
Endpoint label: pKi
Reported measurement: 6.00 to 7.00
--
Compound: CC(C)C[C@@H]1NCCOc2ccccc2CCCNC(=O)[C@H](Cc2c[nH]c3ccccc23)NC(=O)C2(CCCC2)NC1=O [compound 89]
Endpoint label: pKi
Reported measurement: 5.00 to 6.00
--
Compound: CCC(C)C1NCCOc2ccccc2CCCNC(=O)C(Cc2ccccc2)NC(=O)C(CC(C)C)N(C)C1=O (centres unmarked) [compound 147]
Endpoint label: pKi
Reported measurement: < 6.00
